Molecular target: human ALX receptor (Homo sapiens)
Sequence (P25090 whole entry): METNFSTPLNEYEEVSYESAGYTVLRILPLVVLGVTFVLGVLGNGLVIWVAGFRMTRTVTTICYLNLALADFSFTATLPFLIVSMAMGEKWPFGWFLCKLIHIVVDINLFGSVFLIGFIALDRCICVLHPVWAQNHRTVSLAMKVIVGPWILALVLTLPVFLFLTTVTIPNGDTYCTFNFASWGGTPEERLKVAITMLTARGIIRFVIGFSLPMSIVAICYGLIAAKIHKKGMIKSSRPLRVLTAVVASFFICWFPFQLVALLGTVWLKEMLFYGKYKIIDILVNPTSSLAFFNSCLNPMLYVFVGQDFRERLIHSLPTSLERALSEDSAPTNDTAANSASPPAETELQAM
Experiment: Intracellular calcium measurements (FLIPR), ALX receptor agonistic activity
Settings: HEK293-hALXR-Ga16 cells, calcium flux, normalized to WKYMVm 10 nM; read-out: EC50 (agonistic activity with respect to the ALX receptor)
Experimental: The ALX receptor agonistic activity of the compounds of formula (I) is determined in accordance with the following experimental method. Intracellular Calcium Measurements: Cells expressing recombinant human ALX receptor and the G-protein Ga16 (HEK293-hALXR-Ga16) were grown to 80% confluency in Growing Medium (GM). […] Changes in fluorescence were monitored before and after the addition of test compounds at lex=488 nm and lem=540 nm. […]
We label by threshold. Values of EC50 strictly beneath 10 nM are met. Values of 10 nM and up are not met.

Example entries and their recorded answers appear below.
{"compound": "Cc1cccc(-c2oc(C)nc2C(=O)Nc2cnn(Cc3nc(C(C)(F)F)cs3)n2)c1 [Example 3]", "group-label": "met"}
{"compound": "CCc1nc(C(=O)Nc2cnn(Cc3nc(C(C)(F)F)cs3)n2)c(-c2ccccc2)o1 [Example 30]", "group-label": "not met"}
{"compound": "Cc1nc(C(=O)Nc2cnn(Cc3ccc(C(C)(F)F)o3)n2)c(-c2ccccc2)o1 [Example 4]", "group-label": "met"}
{"compound": "CC(F)(F)c1csc(Cn2ncc(NC(=O)c3ncoc3-c3ccccc3)n2)n1 [Example 2]", "group-label": "not met"}
{"compound": "Cc1nc(C(=O)Nc2cnn(Cc3nc(C(C)(F)F)cs3)n2)c(-c2cccc(C(F)(F)F)c2)o1 [Example 6]", "group-label": "not met"}
{"compound": "Cc1nc(C(=O)Nc2cnn(Cc3nc(C(C)(F)F)cs3)n2)c(-c2cccc(OC(F)(F)F)c2)o1 [Example 14]", "group-label": "not met"}

Given the entry Cc1cccc(-c2oc(C)nc2C(=O)Nc2cnn(Cc3ccc(C(C)(F)F)o3)n2)c1 [Example 1] , would its reported EC50 be below 10 nM?
met

Below 10 nM on EC50? Entry CC(F)(F)c1csc(Cn2ncc(NC(=O)c3nc(C4CC4)oc3-c3ccccc3)n2)n1 [Example 9]
not met

Report whether reported EC50 is lower than 10 nM (strictly) for CN(C)c1cc(-c2ocnc2C(=O)Nc2cnn(Cc3nc(C(C)(F)F)co3)n2)ccc1F [Example 35]
met

Problem: For the compound CC(F)(F)c1ccc(Cn2ncc(NC(=O)c3ncoc3-c3ccc(F)cc3)n2)o1 [Example 16] , is EC50 under 10 nM?
not met

Decide: EC50 of CN(C)c1cccc(-c2ocnc2C(=O)Nc2cnn(Cc3nc(C(C)(F)F)co3)n2)c1 [Example 34] strictly below 10 nM?
met

Data provenance is patent US8580831B2.
